Calls of active or inactive are those of the source.
Reported values: Kd for Serine/threonine-protein kinase N2 (Homo sapiens, UniProt Q16513), one per item.

>  <substance smiles>
Cn1cnc2c(F)c(Nc3ccc(Br)cc3F)c(C(=O)NOCCO)cc21

>  <system under test>
Serine/threonine-protein kinase N2 (Homo sapiens, UniProt Q16513); further: in the data inactive means no Kd found up to 30 µM
Sequence (Q16513 whole entry): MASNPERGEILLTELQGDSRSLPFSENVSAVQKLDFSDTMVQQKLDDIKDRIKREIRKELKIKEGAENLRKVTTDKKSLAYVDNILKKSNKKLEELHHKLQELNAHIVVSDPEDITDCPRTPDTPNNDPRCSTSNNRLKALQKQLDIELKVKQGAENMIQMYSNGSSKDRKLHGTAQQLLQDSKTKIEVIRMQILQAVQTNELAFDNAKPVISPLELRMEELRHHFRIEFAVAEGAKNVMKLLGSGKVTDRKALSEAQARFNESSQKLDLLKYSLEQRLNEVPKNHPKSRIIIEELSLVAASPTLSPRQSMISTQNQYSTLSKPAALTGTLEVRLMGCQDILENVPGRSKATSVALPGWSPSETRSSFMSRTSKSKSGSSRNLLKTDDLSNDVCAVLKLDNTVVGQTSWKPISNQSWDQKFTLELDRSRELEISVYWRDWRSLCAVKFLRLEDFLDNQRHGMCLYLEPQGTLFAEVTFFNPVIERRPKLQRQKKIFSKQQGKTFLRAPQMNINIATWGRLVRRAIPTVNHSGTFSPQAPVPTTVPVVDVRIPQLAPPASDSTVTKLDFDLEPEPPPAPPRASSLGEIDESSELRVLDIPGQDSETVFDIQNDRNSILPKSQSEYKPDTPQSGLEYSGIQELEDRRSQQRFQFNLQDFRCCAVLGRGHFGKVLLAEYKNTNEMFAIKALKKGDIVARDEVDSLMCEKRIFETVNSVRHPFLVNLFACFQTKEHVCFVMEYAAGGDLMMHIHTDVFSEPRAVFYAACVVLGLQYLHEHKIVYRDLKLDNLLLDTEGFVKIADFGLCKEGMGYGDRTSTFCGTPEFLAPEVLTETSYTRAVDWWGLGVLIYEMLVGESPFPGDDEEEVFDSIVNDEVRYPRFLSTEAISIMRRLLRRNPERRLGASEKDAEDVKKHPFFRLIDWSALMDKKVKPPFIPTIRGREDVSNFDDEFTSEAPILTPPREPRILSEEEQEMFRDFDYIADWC

>  <Kd>
> 30 µM (inactive)

$$$$
>  <substance smiles>
CCn1cc(-c2ccnc3[nH]c(-c4cccc(CN(C)C)c4)cc23)c(-c2ccc(NC(=O)N(C)C)cc2)n1

>  <system under test>
Serine/threonine-protein kinase N2 (Homo sapiens, UniProt Q16513); further: in the data inactive means no Kd found up to 30 µM

>  <Kd>
> 30 µM (inactive)

$$$$
>  <substance smiles>
CO[C@H]1C[C@@H]2CC[C@@H](C)[C@@](O)(O2)C(=O)C(=O)N2CCCC[C@H]2C(=O)O[C@H]([C@H](C)C[C@@H]2CC[C@@H](O)[C@H](OC)C2)CC(=O)[C@H](C)/C=C(\C)[C@@H](O)[C@@H](OC)C(=O)[C@H](C)C[C@H](C)/C=C/C=C/C=C/1C

>  <system under test>
Serine/threonine-protein kinase N2 (Homo sapiens, UniProt Q16513); further: in the data inactive means no Kd found up to 30 µM

>  <Kd>
> 30 µM (inactive)

$$$$
